- TEST DESCRIPTION: chemical genetic growth profiling, strain panel (AID 1159580);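 further: tested at 20 µM; growth read once vehicle control cultures reached saturation at 30 °C; lower values mean less growth of the strain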
- CONDITION DESCRIPTION: S. cerevisiae deletion strains, growth OD, locus YGL078C, strain dbp3
The campaign covered roughly 5,500 compounds. About 2,000 (36%) were called active. Inconclusive results (about 18%) are left out. No stated cut-off is given here; in the data, active means normalized growth mostly below about 0.91 (no sharp cut-off); inconclusive means no clear call, values can overlap the other calls; inactive means mostly above about 0.92. The list shows a part of the results.
Use one of these outcomes when replying: yes for active, no for inactive

Some solved cases for reference:
>>> assigned_class("CCC(C)C(=O)O[C@H]1[C@H](O)C2C(CN3CC(C)CCC3[C@@]2(C)O)C2C[C@]34O[C@]5(O)C(OC(=O)C(C)(O)CC)CC[C@@]3(C)C5C(OC(C)=O)[C@@H](OC(C)=O)C4[C@@]21O (stereo not given in full)")
"no"
>>> assigned_class("CCC(C)C(NC)C(=O)O (stereo not given)")
"no"

Please let me know the test result on file for `Clc1ccccc1C(c1ccccc1)(c1ccccc1)n1ccnc1` . yes

Proceed to COc1c(CC(=O)c2cc3c(cc2O)OC(C)(C)C(O)C3)ccc2c1C=CC(C)(C)O2 (stereo not given) no

Next: `C[C@@H]1CC[C@H]2[C@@H](C)C(=O)O[C@@H]3O[C@@]4(C)CC[C@@H]1[C@]32OO4` no

Follow-up item: `NNC(=O)c1ccncc1` no

Continue with `O=c1oc2cc(O)ccc2s1` no

Continue with CO[C@@]12[C@@H]3NC3CN1C1=C(C(=O)C(N)=C(C)C1=O)[C@@H]2COC(N)=O (stereo not given in full) no

Follow-up item: `C[C@@H]1C(=O)O[C@H]2[C@H]1CC[C@@]1(C)C=CC(=O)[C@@]3(C)O[C@@]213` no

Consider next the compound `CC(C)(Oc1ccc(CCNC(=O)c2ccc(Cl)cc2)cc1)C(=O)O` in the same way. no

Moving on to the next compound: NC(Cc1c[nH]c2ccccc12)C(=O)O (stereo not given) no

Next up: `Nc1c2c(nc3ccccc13)CCCC2` no

And the next one, `Cc1cc(O)cc(O)c1C(=O)O` ? no

Entry `Cc1cc(O)cc(C)c1Cl` please yes

// same read-out, input: CC1C(=O)OC2C1CCC1(C)C=CC(=O)C3(C)OC213 (stereo not given) no

----------
- TEST DESCRIPTION: chemical genetic growth profiling, strain panel (AID 1159580);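 further: tested at 20 µM; growth read once vehicle control cultures reached saturation at 30 °C; lower values mean less growth of the strain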
- CONDITION DESCRIPTION: S. cerevisiae deletion strains, growth OD, locus YCL011C, strain gbp2
The whole screen tested about 5,500 compounds, of which about 2,000 (36%) were called active. Roughly 18% stayed inconclusive and do not appear here. No stated cut-off is given here; in the data, active means normalized growth mostly below about 0.91 (no sharp cut-off); inconclusive means no clear call, values can overlap the other calls; inactive means mostly above about 0.92. This is one part of the list. Where a SMILES comes first, the peptide text is derived from it. Bridges are numbered along the chain shown (N, C = ends). [ ]: non-standard residue; d: D form. The star is where a group is joined. ξ: configuration not given here. ξDab(CH2SO3H) = NC(CCNCS(=O)(=O)O)C(=O)O; Heptanoyl(6-Me) = CC(C)CCCCC(=O)*; Dab = NCC[CH](N)C(=O)O
// classify into active, inactive

>>> assigned_class("C[C@@H]1C(=O)O[C@H]2[C@H]1CC[C@@]1(C)C=CC(=O)[C@@]3(C)O[C@@]213")
"inactive"
>>> assigned_class("CC1=NS(=O)(=O)c2cc(Cl)ccc2N1")
"inactive"
>>> assigned_class("COC(=O)C[C@H]1C(C)(C)C(=O)[C@@H]2CC3C4=CC(=O)O[C@@H](c5ccoc5)[C@]4(C)CCC3[C@@]1(C)C2=O (stereo partly drawn)")
"inactive"
>>> assigned_class("CNCc1ccccc1")
"inactive"
>>> assigned_class("CC(CC(=O)C(O)C(C)(C)O)C1C(=O)CC2(C)C3=CCC4C(C)(C)C(OC5OCC(O)C(O)C5O)CCC45CC35C(O)CC12C (stereo not drawn)")
"inactive"

Short answer needed: outcome of this test for CCC(C)C1NC(=O)C(CCNCS(=O)(=O)O)NC(=O)C(NC(=O)C(CCNCS(=O)(=O)O)NC(=O)C(NC(=O)C(CCNCS(=O)(=O)O)NC(=O)CCCCC(C)C)C(C)O)CCNC(=O)C(C(C)O)NC(=O)C(CCNCS(=O)(=O)O)NC(=O)C(CCNCS(=O)(=O)O)NC(=O)C(C(C)CC)NC1=O (stereo not drawn) ({Heptanoyl(6-Me)}-[ξDab(CH2SO3H)]T[ξDab(CH2SO3H)][Dab][ξDab(CH2SO3H)]II[ξDab(CH2SO3H)][ξDab(CH2SO3H)]T; lactam 4-C; configuration not given here) ? inactive

Same question for `Cc1cc(O)cc(C)c1Cl` please. active

Continue with `Cc1cc(O)cc(=O)o1` inactive

Another compound to look at: `O=C(O)CC(O)(CC(=O)O)C(=O)O` inactive

Here is the next compound: CC(=O)/C=C\[C@@H]1[C@@]2(C)CCCC(C)(C)C2CC[C@@]1(C)O (stereo partly drawn) inactive

Another compound to look at: `O=C(Nc1ccc(C(=O)O)c(O)c1)c1ccccc1` inactive

// query: `C[C@@H]1CC[C@H]2[C@@H](C)C(=O)O[C@@H]3O[C@@]4(C)CC[C@@H]1[C@]32OO4` active

Ok, now C[C@@H]1CC[C@H]2[C@@H](C)C(O)O[C@@H]3O[C@@]4(C)CC[C@@H]1[C@]32OO4 (stereo partly drawn) active
